Sourced from patent US20120164137A1

- tested target: Human FRA on IGROV-1 human ovarian adenocarcinoma cells (human, UniProt P15328 25-234)
- Sequence (P15328 25-234 limits assumed): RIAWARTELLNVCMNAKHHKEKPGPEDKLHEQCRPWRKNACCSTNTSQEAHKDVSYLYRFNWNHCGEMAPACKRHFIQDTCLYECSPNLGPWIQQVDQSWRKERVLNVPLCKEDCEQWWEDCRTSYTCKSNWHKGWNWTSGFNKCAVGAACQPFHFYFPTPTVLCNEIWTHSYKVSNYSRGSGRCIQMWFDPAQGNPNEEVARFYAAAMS
- test details: cell-based or functional assay
In this section, each of the binders is paired with its reported INTL % (150 min).
readout kind: INTL % (150 min) (%)

# binder, number
measured = [
    ("MORAb-003 anti-FRA antibody, lot NB810-12 (low temperature; harvested 14 days after initiation of culture) (antibody, human IgG1, kappa, V domains shown, N-linked neutral glycans at Asn299 in SEQ ID NO: 5) VH: EVQLVESGGGVVQPGRSLRLSCSASGFTFSGYGLSWVRQAPGKGLEWVAMISSGGSYTYYADSVKGRFAISRDNAKNTLFLQMDSLRPEDTGVYFCARHGDDPAWFAYWGQGTPVTVSS VL: DIQLTQSPSSLSASVGDRVTITCSVSSSISSNNLHWYQQKPGKAPKPWIYGTSNLASGVPSRFSGSGSGTDYTFTISSLQPEDIATYYCQQWSSYPYMYTFGQGTKVEIKR", 55),
    ("MORAb-003 anti-FRA antibody, lot NB809-66 (0.5 mM Na butyrate; harvested 13 days after initiation of culture) (antibody, human IgG1, kappa, V domains shown, N-linked neutral glycans at Asn299 in SEQ ID NO: 5) VH: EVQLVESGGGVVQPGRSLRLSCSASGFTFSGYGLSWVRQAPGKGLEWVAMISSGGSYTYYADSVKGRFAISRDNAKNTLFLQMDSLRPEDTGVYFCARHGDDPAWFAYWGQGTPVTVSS VL: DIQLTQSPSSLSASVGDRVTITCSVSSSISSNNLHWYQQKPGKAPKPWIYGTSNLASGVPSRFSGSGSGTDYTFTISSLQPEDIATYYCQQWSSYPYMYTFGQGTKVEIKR", 50),
]
